Source of measurements: paper PMC3949622

tested on: KB3-1 cells; test: MTT cytotoxicity assay, KB3-1; format: cell-based, human; conditions: continuous exposure for four days, means of at least two determinations ± standard deviation, read-out: IC50, KB3-1 wt.
pIC50: −log10 of the molar value.
Classify as follows. Reported pIC50 greater than or equal to 6: fulfilled. Reported pIC50 below: not fulfilled.

> print(dat)
                                   compound   category
1  CN(C)CCc1oc2nc1C(=O)NCc1cccc(c1)CNC(=O)c1nc(oc1CCN(C)C)-c1coc(n1)-c1cccc(n1)-c1nc-2co1 [Compound 37]  fulfilled

Threshold query (pIC50 >= 6) on CN(C)c1ccc2cc1CNC(=O)c1coc(n1)-c1coc(n1)-c1cccc(n1)-c1nc(co1)-c1nc(co1)C(=O)NC2 [Compound 8]
fulfilled

Same lookup for CC(C)[C@@H]1NC(=O)c2coc(n2)-c2coc(n2)-c2coc(n2)[C@H](C(C)C)NC(=O)c2coc(n2)-c2coc(n2)-c2coc1n2 [HXDV, reference compound] , please.
fulfilled

Field entry: CN(C)CCCc1ccc2cc1CNC(=O)c1coc(n1)-c1coc(n1)-c1cccc(n1)-c1nc(co1)-c1nc(co1)C(=O)NC2 [Compound 12]
fulfilled

What do you get for CN(C)CCc1ccc2cc1CNC(=O)c1coc(n1)-c1coc(n1)-c1cccc(n1)-c1nc(co1)-c1nc(co1)C(=O)NC2 [Compound 11] ?
fulfilled

Next up: CN(C)Cc1cc2cc(c1)CNC(=O)c1coc(n1)-c1coc(n1)-c1cccc(n1)-c1nc(co1)-c1nc(co1)C(=O)NC2 [Compound 20]
not fulfilled

----------
Reported Ttran, salmon testes duplex DNA values follow for various molecules
tested on: Salmon testes (ST) duplex DNA; experiment: UV melting of salmon testes duplex DNA; format: binding; conditions: first-derivative UV melting at 260 nm; ST DNA 15 µM base pair, drug 15 µM; 10 mM potassium phosphate pH 7.5, total K+ 150 mM; no drug: 86.6
Could you give me the number in °C? Just the number is fine.

Bench note: what Ttran, salmon testes duplex DNA did `CN(C)CCCc1cc2cc(c1)CNC(=O)c1coc(n1)-c1coc(n1)-c1cccc(n1)-c1nc(co1)-c1nc(co1)C(=O)NC2` show?
86.2

Next molecule: `CN(C)c1cc2cc(c1)CNC(=O)c1coc(n1)-c1coc(n1)-c1cccc(n1)-c1nc(co1)-c1nc(co1)C(=O)NC2`
86.1

Entry `CN(C)CCc1oc2nc1C(=O)NCc1cccc(c1)CNC(=O)c1coc(n1)-c1coc(n1)-c1cccc(n1)-c1nc-2co1` please
86.2

How about `CN(C)CCc1ccc2cc1CNC(=O)c1coc(n1)-c1coc(n1)-c1cccc(n1)-c1nc(co1)-c1nc(co1)C(=O)NC2` ?
86.2

And the next one, `CN(C)Cc1cc2cc(c1)CNC(=O)c1coc(n1)-c1coc(n1)-c1cccc(n1)-c1nc(co1)-c1nc(co1)C(=O)NC2` ?
86.2

// same read-out, input: `CN(C)CCCc1ccc2cc1CNC(=O)c1coc(n1)-c1coc(n1)-c1cccc(n1)-c1nc(co1)-c1nc(co1)C(=O)NC2`
86.2

Quick one: `CN(C)CCc1oc2nc1C(=O)NCc1cccc(c1)CNC(=O)c1nc(oc1CCN(C)C)-c1coc(n1)-c1cccc(n1)-c1nc-2co1`
86.2

Do the same for `CN(C)c1ccc2cc1CNC(=O)c1coc(n1)-c1coc(n1)-c1cccc(n1)-c1nc(co1)-c1nc(co1)C(=O)NC2` please
85.7
